Each entry below lists one item and its recorded protein stability index value.
B1: FAM46C (parent)
chain: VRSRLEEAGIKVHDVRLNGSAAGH

- Variants of: B1
- Assay text: protein stability index of a GFP-peptide fusion (GPS, HEK-293T) (PSI 1-6); higher = more stable;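 also: lentivirally expressed fusions sorted by FACS into six bins by GFP to DsRed ratio, PSI derived from sequencing read proportions per bin multiplied by bin number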
- Measurement conditions: c terminus: a fixed tail appended

{"columns": ["Mutant name", "Obs value"],
 "data": [
  ["A22V", 3.25],
  ["A22N", 2.25],
  ["V1Y", 3.57],
  ["A22E", 2.12],
  ["V1L", 1.33]
]}

Query `S20C` yields protein stability index of 2.45
